Hey, just so you know, these numbers are from PubChem BioAssay AID1159580.

- Assay procedure: chemical genetic growth profiling, strain panel (AID 1159580);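 note: tested at 20 µM; growth read once vehicle control cultures reached saturation at 30 °C; 1 = growth at the plate median or of vehicle wells; lower values mean less growth of the strain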
- Setup conditions: S. cerevisiae deletion strains, growth OD, locus YBR171W, strain sec66, hits give low values
Among all 5,500 compounds or so, about 2,000 (36%) were called active. Inconclusive results (about 18%) are left out. The list shows a part of the results. Where a SMILES comes first, the peptide text is derived from it. Bridges are numbered along the chain shown (N, C = ends). [ ]: non-standard residue; d: D form. The star is where a group is joined. ξ: configuration not given here. ξDab(CH2SO3H) = NC(CCNCS(=O)(=O)O)C(=O)O; Heptanoyl(6-Me) = CC(C)CCCCC(=O)*; Dab = NCC[CH](N)C(=O)O
Attribute measured: normalized growth
No unit in the answer, only the number.

May I ask what normalized growth has been recorded for `COc1ccc2c(c1)c(CC(=O)OCC(=O)O)c(C)n2C(=O)c1ccc(Cl)cc1` ?
0.978

Would you kindly repeat that for `CC(=O)NCc1c(I)c(NC(C)=O)c(I)c(C(=O)O)c1I` ?
0.995

Input CCC(C)C1NC(=O)C(CCNCS(=O)(=O)O)NC(=O)C(NC(=O)C(CCNCS(=O)(=O)O)NC(=O)C(NC(=O)C(CCNCS(=O)(=O)O)NC(=O)CCCCC(C)C)C(C)O)CCNC(=O)C(C(C)O)NC(=O)C(CCNCS(=O)(=O)O)NC(=O)C(CCNCS(=O)(=O)O)NC(=O)C(C(C)CC)NC1=O (centres undefined) ({Heptanoyl(6-Me)}-[ξDab(CH2SO3H)]T[ξDab(CH2SO3H)][Dab][ξDab(CH2SO3H)]II[ξDab(CH2SO3H)][ξDab(CH2SO3H)]T; lactam 4-C; configuration not given here)
0.995

Also CC(C)CCCC1(C)C=Cc2c(O)c3c(c(CCC(C)C)c2O1)OC12C(CC4CC1C(C)(C)OC2(CCC(C)C(=O)O)C4O)C3=O (centres undefined) ?
0.991
